tested on: HCV replicon cells; experiment: HCV replicon FRET assay; assay type: cell-based; settings: Hepatitis C virus; HCV replicon cells; FRET assay; read-out: EC50
Value Kind: EC50

compound="COc1ccc2c(c1)C1CC1(S(=O)(=O)N1CCN3CCCC3C1)Cn1c-2c(C2CCCCC2)c2ccc(C(=O)NS(=O)(=O)N3CCOCC3)cc21 (stereo not shown) [drawing 64]" reported="0.02 to 1 µM"
compound="COc1ccc2c(c1)CC(S(=O)(=O)CCN(C)C)Cn1c-2c(C2CCCCC2)c2ccc(C(=O)NS(=O)(=O)N(C)C)cc21 (stereo not shown)" reported="0.02 to 1 µM"
compound=COc1ccc2c(c1)C=C(S(=O)(=O)N1CCOCC1)Cn1c-2c(C2CCCCC2)c2ccc(C(=O)NS(=O)(=O)N(C)C)cc21 reported="0.02 to 1 µM"
compound="COc1ccc2c(c1)C1CC1(S(=O)(=O)N1C[C@@H](C)N(C)[C@@H](C)C1)Cn1c-2c(C2CCCCC2)c2ccc(C(=O)NS(=O)(=O)N(C)C)cc21 (stereo partly shown)" reported="0.02 to 1 µM"

---

test system: HCV replicon cells; test: HCV replicon FRET assay; assay type: cell-based; settings: Hepatitis C virus
Value Kind: EC50

compound="COc1ccc2c(c1)C1CC1(S(=O)(=O)N1C3CCC1CC(C)(O)C3)Cn1c-2c(C2CCCCC2)c2ccc(C(=O)NS(=O)(=O)N(C)C)cc21 (stereo not drawn)" value_kind=EC50 reported="20 to 1000 nM"
compound="COc1ccc2c(c1)C1CC1(S(=O)(=O)N1C3CCC1CN(C)C3)Cn1c-2c(C2CCCCC2)c2ccc(C(=O)O)cc21 (stereo not drawn)" value_kind=EC50 reported="20 to 1000 nM"
compound="COc1ccc2c(c1)C1CC1(S(=O)(=O)N1C3CCC1CC(C)(O)C3)Cn1c-2c(C2CCCCC2)c2ccc(C(=O)NS(=O)(=O)N3CCOCC3)cc21 (stereo not drawn)" value_kind=EC50 reported="20 to 1000 nM"

From: patent US7456167B2
